# measured-on: Galectin-3 (Homo sapiens, UniProt P17931)
# Sequence (P17931 whole entry): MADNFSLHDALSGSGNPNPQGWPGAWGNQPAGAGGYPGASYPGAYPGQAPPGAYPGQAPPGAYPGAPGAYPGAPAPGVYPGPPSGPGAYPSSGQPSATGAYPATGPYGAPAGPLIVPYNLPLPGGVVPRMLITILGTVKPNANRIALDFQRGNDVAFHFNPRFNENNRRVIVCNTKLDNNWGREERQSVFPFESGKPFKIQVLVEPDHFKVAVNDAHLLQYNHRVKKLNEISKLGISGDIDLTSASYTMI
recorded-endpoint: Kd

Which value of Kd has been reported for OCC1O[C@@H](S[C@@H]2O[C@H](CO)C(O)C(n3cc(-c4cccc(F)c4)cn3)[C@H]2O)C(O)[C@@H](n2cc(-c3cccc(F)c3)cn2)[C@H]1O (stereo partly specified) [US20240059728, Example 4] in the records? < 10 nM

###

Reported values of Kd for individual entries
# measured-on: Galectin-1 (Homo sapiens, UniProt P09382)
# Sequence (P09382 whole entry): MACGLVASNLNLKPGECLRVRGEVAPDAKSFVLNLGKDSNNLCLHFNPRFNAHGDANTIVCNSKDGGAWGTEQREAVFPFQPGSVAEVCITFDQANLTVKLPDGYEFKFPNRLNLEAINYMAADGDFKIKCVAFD
Express it in nM; write the number only.

{"columns": ["molecule", "Kd (nM)"],
 "data": [
  ["OCC1O[C@@H](S[C@@H]2O[C@H](CO)C(O)C(n3cc(-c4cc(F)c(F)c(F)c4)cn3)[C@H]2O)C(O)[C@@H](n2cc(-c3cc(F)c(F)c(F)c3)cn2)[C@H]1O (some centres not stated) [US20240059728, Example 5]", 890]
]}

Now for the molecule whose Kd we want.
Find the measured Kd: item OCC1O[C@@H](S[C@@H]2O[C@H](CO)C(O)C(n3cc(-c4cccc(F)c4)cn3)[C@H]2O)C(O)[C@@H](n2cc(-c3cccc(F)c3)cn2)[C@H]1O (some centres not stated) [US20240059728, Example 4] , target or system Galectin-1 (Homo sapiens, UniProt P09382). 780
